Provide the recorded FXa generation rate at 200 nM mAb for the entries that follow.
molecular target: human plasma-derived FIXa (Haematologic Technologies Inc) (human, UniProt P00740 47-191; P00740 227-461); assay: cell-based or functional assay
Sequence (P00740 47-191, chain 1 of 2): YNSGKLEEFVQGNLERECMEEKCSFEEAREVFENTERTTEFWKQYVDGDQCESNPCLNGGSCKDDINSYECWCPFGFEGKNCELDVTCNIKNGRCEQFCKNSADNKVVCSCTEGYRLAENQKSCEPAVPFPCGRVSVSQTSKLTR
Sequence (P00740 227-461, chain 2 of 2): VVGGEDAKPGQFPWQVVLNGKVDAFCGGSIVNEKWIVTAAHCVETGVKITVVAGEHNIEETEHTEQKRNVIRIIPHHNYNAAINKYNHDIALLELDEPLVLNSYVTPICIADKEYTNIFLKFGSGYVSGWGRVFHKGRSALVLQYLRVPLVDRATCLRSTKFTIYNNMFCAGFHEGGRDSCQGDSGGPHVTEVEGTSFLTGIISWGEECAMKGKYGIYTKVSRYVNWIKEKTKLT
Answers are plain numbers, in pM/min.

Consider the following illustrative entries.
| binder | FXa generation rate at 200 nM mAb (pM/min) |
| --- | --- |
| mAb1-4707 (antibody, V domains shown) VH: EVQLVESGGGLVQPGRSLRLSCAASGFTFGDYAMHWVRQAPGKGLEWVSGISWVSGSIGYARSVKGRFTISRDNAKNSLYLQMNSLRAEDTALYYCAKGQYDEDAGMDVWGQGTTVTVSS VL: DIQMTQSPSSLSASVGDRVTITCRASQSIRSYLNWYQQKPGKAPKLLIYAASSLQSGVPSRFSGSGSGTDFTLTISSLQPEDFATYYCQQGYPTWTFGGGTKVEIK | 586 |
| mAb1-4071 (antibody, V domains shown) VH: EVQLVQSGAEVKKPGESLRISCKGSGYSFTPYWIGWVRQMPGKGLEWMGMIDPSDSYTDYGPSFRGHVTISADKSISTAYLQWSSLKASDTAMYYCARVRIREGAFDIWGQGTMVTVSS VL: DIVMTQSPLSLPVTPGEPASISCRSSQRLLHSTGYNYLNWYLQKPGQSPQLLIYLGSRRASGVPDRFSGSGSGTDFTLKISRVEAEDVGVYYCMQALHIPYTFGQGTKLEIK | 208 |

// next item, FXa generation rate at 200 nM mAb requested
Value lookup for FXa generation rate at 200 nM mAb; key = mAb1-4861 (antibody, V domains shown) VH: EVQLVESGGGLVQPGRSLKLSCAASGFTFDDYAMHWVRQVPGKGLEWVSGISWNGDNIGYVDSVKGRFTISRDNAKNSLYLQLNSLRAEDTALYYCVKSYGSGSFYNAFDSWGQGTLVTVSS VL: DIQMTQSPSTLSASAGDRVTITCRASQSISSWLAWYQQKPGKAPKFLIYKASRLERGVPSRFSGSGSGTEFSLTISSLQPDDFATYYCLEYSSYIRTFGQGTKVEIK
411
